target_system: Growth factor receptor-bound protein 2 (Homo sapiens) (UniProt P62993)
Sequence (P62993 whole entry, looked up): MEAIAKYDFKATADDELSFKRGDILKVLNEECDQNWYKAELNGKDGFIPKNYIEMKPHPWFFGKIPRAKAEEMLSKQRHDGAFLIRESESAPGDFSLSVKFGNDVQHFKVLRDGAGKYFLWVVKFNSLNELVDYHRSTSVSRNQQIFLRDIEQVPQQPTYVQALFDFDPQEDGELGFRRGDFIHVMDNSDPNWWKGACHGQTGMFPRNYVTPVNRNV
measurement_protocol: Antagonistic activity at 100 uM concentration against SH-2 domain of growth factor receptor binding protein (Grb2).
Where a SMILES comes first, the peptide text is derived from it. [ ]: non-standard residue; d: D form. The star is where a group is joined. Gly(N-Bn(4-CH2PO3H2)) = O=C(O)CNCc1ccc(CP(=O)(O)O)cc1; N(3-phenylpropyl)Gly = O=C(O)CNCCCc1ccccc1; Hexanoyl = CCCCCC(=O)*; Nleu = CC(C)CNCC(=O)O; NEtG = CCNCC(=O)O
Recorded inhibition, one value per entry.
Only the number, expressed in %, is required.

Here is how some compounds turned out for inhibition.
CCCCCC(=O)N(CC(=O)N(CC(=O)N(CC)CC(=O)N(CC(N)=O)CC(C)C)CC(C)C)Cc1ccc(CP(=O)(O)O)cc1 (Hexanoyl-[Gly(N-Bn(4-CH2PO3H2))][Nleu][NEtG][Nleu]-NH2) = 30
CCCCCC(=O)N(CC(=O)N(CCCc1ccccc1)CC(=O)N(CC(=O)N(CC)CC(N)=O)CC(C)C)Cc1ccc(CP(=O)(O)O)cc1 (Hexanoyl-[Gly(N-Bn(4-CH2PO3H2))][N(3-phenylpropyl)Gly][Nleu][NEtG]-NH2) = 6

Qu. Which measured inhibition value corresponds to CCCCCC(=O)N(CC(=O)N(CC(=O)N(CC)CC(=O)N(CCCc1ccccc1)CC(N)=O)CC(C)C)Cc1ccc(CP(=O)(O)O)cc1 (Hexanoyl-[Gly(N-Bn(4-CH2PO3H2))][Nleu][NEtG][N(3-phenylpropyl)Gly]-NH2) ?
Ans. 2

Qu. Which measured inhibition value corresponds to CCCCCC(=O)N(CC(=O)N(CCCc1ccccc1)CC(=O)N(CCCc1ccccc1)CC(=O)N(CCCc1ccccc1)CC(N)=O)Cc1ccc(CP(=O)(O)O)cc1 (Hexanoyl-[Gly(N-Bn(4-CH2PO3H2))][N(3-phenylpropyl)Gly][N(3-phenylpropyl)Gly][N(3-phenylpropyl)Gly]-NH2) ?
Ans. 5

Qu. Which measured inhibition value corresponds to CCCCCC(=O)N(CC(=O)N(CC)CC(=O)N(CCCc1ccccc1)CC(=O)N(CC(N)=O)CC(C)C)Cc1ccc(CP(=O)(O)O)cc1 (Hexanoyl-[Gly(N-Bn(4-CH2PO3H2))][NEtG][N(3-phenylpropyl)Gly][Nleu]-NH2) ?
Ans. 4

###

Recorded inhibition, one value per entry.
target_system: Growth factor receptor-bound protein 2 (Homo sapiens) (UniProt P62993)
measurement_protocol: Antagonistic activity at 100 uM concentration against SH-2 domain of growth factor receptor binding protein (Grb2).
Where a SMILES comes first, the peptide text is derived from it. [ ]: non-standard residue; d: D form. The star is where a group is joined. Gly(N-Bn(4-CH2PO3H2)) = O=C(O)CNCc1ccc(CP(=O)(O)O)cc1; N(3-phenylpropyl)Gly = O=C(O)CNCCCc1ccccc1; Hexanoyl = CCCCCC(=O)*; Nleu = CC(C)CNCC(=O)O; NEtG = CCNCC(=O)O

Here is how some molecules turned out for inhibition.
CCCCCC(=O)N(CC(=O)N(CC)CC(=O)N(CC)CC(=O)N(CCCc1ccccc1)CC(N)=O)Cc1ccc(CP(=O)(O)O)cc1 (Hexanoyl-[Gly(N-Bn(4-CH2PO3H2))][NEtG][NEtG][N(3-phenylpropyl)Gly]-NH2) = 4%
CCCCCC(=O)N(CC(=O)N(CCCc1ccccc1)CC(=O)N(CC(=O)N(CC(N)=O)CC(C)C)CC(C)C)Cc1ccc(CP(=O)(O)O)cc1 (Hexanoyl-[Gly(N-Bn(4-CH2PO3H2))][N(3-phenylpropyl)Gly][Nleu][Nleu]-NH2) = 0%

Qu. Which measured inhibition value corresponds to CCCCCC(=O)N(CC(=O)N(CC(=O)N(CC(=O)N(CC)CC(N)=O)CC(C)C)CC(C)C)Cc1ccc(CP(=O)(O)O)cc1 (Hexanoyl-[Gly(N-Bn(4-CH2PO3H2))][Nleu][Nleu][NEtG]-NH2) ?
Ans. 4%

Qu. Which measured inhibition value corresponds to CCCCCC(=O)N(CC(=O)N(CC(=O)N(CC(=O)N(CC(N)=O)CC(C)C)CC(C)C)CC(C)C)Cc1ccc(CP(=O)(O)O)cc1 (Hexanoyl-[Gly(N-Bn(4-CH2PO3H2))][Nleu][Nleu][Nleu]-NH2) ?
Ans. 6%

Qu. Which measured inhibition value corresponds to CCCCCC(=O)N(CC(=O)N(CC(=O)N(CCCc1ccccc1)CC(=O)N(CC)CC(N)=O)CC(C)C)Cc1ccc(CP(=O)(O)O)cc1 (Hexanoyl-[Gly(N-Bn(4-CH2PO3H2))][Nleu][N(3-phenylpropyl)Gly][NEtG]-NH2) ?
Ans. 5%
